- Test description: Biodistribution in tail vein injected Sprague-Dawley rat brain after 5 to 60 mins
- Assay type: ADME, organism-based
- Measurement conditions: iv, read-out: Drug uptake
Measured attribute: tissue uptake

Return value of tissue uptake for input "CN(CCNC/C=C/c1ccc(Br)cc1)S(=O)(=O)c1cccc2cnccc12" , no commentary.
< 0.2 %ID/g

====

- Test description: Partition coefficient, log P in phosphate buffer at pH 7.4
- Assay type: physicochemical
Measured attribute: logD
One number for each entry.

Return value of logD for input "CN(CCNC/C=C/c1ccc(Br)cc1)S(=O)(=O)c1cccc2cnccc12" , no commentary.
2.93

Attribution: ChEMBL document CHEMBL1149891
